# System Under Test: Apoptosis regulator Bcl-2 (Homo sapiens)
# Experimental Protocol: Effect on DEVD cleavage by DEVDase assay with anti-Fas antibody treatment using Bcl-2 overexpressing HeLa cells; 3 fold activation concentration (AC3)
# Type: functional, cell-based
Reported Metric: AC3 (µM)
Response body: numeric value in µM, unit text excluded.

Molecule	AC3, µM
COC(=O)NC1[C@H](C)O[C@@H](O[C@H]2C/C=C(\C)[C@@H]3C=C[C@@H]4[C@@H](OC5C=C[C@H](O)[C@H](C)O5)[C@@H](C)C[C@H](C)[C@H]4[C@]3(C)/C(O)=C3\C(=O)O[C@]4(CC(C=O)=C[C@H](OC(C)=O)[C@H]4/C=C\2C)C3=O)CC1(C)[N+](=O)[O-] (some centres not stated)	3.6
COC(=O)NC1[C@H](C)O[C@@H](O[C@H]2C/C=C(\C)[C@@H]3C=C[C@@H]4[C@@H](OC5C[C@H](O[C@@H]6CCC(OC7C[C@H](O)[C@@H](OC8CC[C@@H](O)C(C)O8)C(C)O7)[C@H](C)O6)[C@@H](OC(C)=O)C(C)O5)[C@@H](C)C[C@H](C)[C@H]4[C@]3(C)C(=O)C3=C(OC)[C@@]4(CC(C=O)=CC(O)[C@H]4/C=C\2C)OC3=O)CC1(C)[N+](=O)[O-] (some centres not stated)	1
COC(=O)NC1[C@H](C)O[C@@H](O[C@H]2C/C=C(\C)[C@@H]3C=C[C@@H]4[C@@H](OCc5ccc(OC)cc5)[C@@H](C)C[C@H](C)[C@H]4[C@]3(C)/C(O)=C3\C(=O)O[C@]4(CC(C=O)=C[C@H](OC(C)=O)[C@H]4/C=C\2C)C3=O)CC1(C)[N+](=O)[O-] (some centres not stated)	3.8
CC[Si](CC)(CC)OO[C@H]1C=CC(O[C@@H]2[C@H]3C=C[C@H]4/C(C)=C/C[C@H](O[C@H]5CC(C)([N+](=O)[O-])C(NC(=O)OC)[C@H](C)O5)/C(C)=C\[C@@H]5[C@@H](OC(C)=O)C=C(C=O)C[C@]56OC(O)=C(C(=O)[C@@]4(C)[C@@H]3[C@@H](C)C[C@@H]2C)C6=O)O[C@H]1C (some centres not stated)	4.9

Query molecule follows.
[Q] Any idea what AC3 was measured for COC(=O)NC1[C@H](C)O[C@@H](O[C@H]2C/C=C(\C)[C@@H]3C=C[C@@H]4[C@@H](O[Si](C)(C)C(C)(C)C)[C@@H](C)C[C@H](C)[C@H]4[C@]3(C)/C(O)=C3\C(=O)O[C@]4(CC(C=O)=C[C@H](O)[C@H]4/C=C\2C)C3=O)CC1(C)[N+](=O)[O-] (some centres not stated) ?
[A] 1.3
